- Test system: T-47D breast
- Test summary: NCI-60 one-dose screen, 48 h (100 = growth as untreated, 0 = no growth, -100 = all killed)
- Condition info: 10 µM unless noted
- Description: Growth inhibition of the T-47D human tumor cell line is measured as a screen for anti-cancer activity. Cells are grown in 96 well plates and exposed to the test compound for 48 hours. Compounds are tested at a single concentration, which is 10^-5 M for most compounds. The reported endpoint is percent growth (GI% or GIPRCNT), where numbers from 0 - 100% represent growth inhibition, and numbers from -100% - 0 represent cell death. For example, a value of 40 represents 60% growth inhibition. […]
This is part of a sample that, as a whole, favours compounds with a hit. Of some 83,000 tested, about 20% had one in any assay. The source made the active and inactive calls. Rule for the calls: active = growth percent below 10; inactive = the rest.
growth values by entry

[
  {
    "Compound": "CC/C=C\\C[C@H](O)C/C=C1/C(=O)C=C[C@@H]1C/C=C\\CCCC(=O)O",
    "growth": "12% (inactive)"
  },
  {
    "Compound": "C/C(=N\\O)[C@@H]1CC[C@]2(CO)CC[C@]3(C)[C@H](CC[C@@H]4[C@@]5(C)CCCNC(C)(C)[C@@H]5CC[C@]43C)[C@@H]12",
    "growth": "72.5% (inactive)"
  },
  {
    "Compound": "N#C/C(=C\\c1ccc(-c2cccc(C(F)(F)F)c2)o1)c1ccccc1",
    "growth": "35.6% (inactive)"
  },
  {
    "Compound": "Oc1c(CN2CCCC2)cc(CSCc2ccccc2)c2cccnc12",
    "growth": "-3.02% (active)"
  },
  {
    "Compound": "CC(=O)Oc1ccc(OC(C)=O)c2ccccc12",
    "growth": "-49.6% (active)"
  },
  {
    "Compound": "CCN(CC)CCN1C(=O)c2c(c(C)c3c(oc4ccc(OC)cc43)c2C)C1=O",
    "growth": "110% (inactive)"
  },
  {
    "Compound": "COc1ccc(C(=O)Cn2c(C(=O)c3ccc(OC)cc3)nc3ccccc32)cc1",
    "growth": "29.9% (inactive)"
  },
  {
    "Compound": "CCCCCN(CCCCC)CC(O)c1cc(C)c2ccc3cc(C(C)C)ccc3c2c1 (centres undefined)",
    "growth": "53.3% (inactive)"
  },
  {
    "Compound": "O=S(=O)(NCCNc1nccc(-c2c(-c3ccc(F)c(O)c3)nc3sccn23)n1)c1ccc(F)cc1",
    "growth": "35.9% (inactive)"
  },
  {
    "Compound": "C=C(CNCCc1ccc(O)cc1)[C@@H]1CC[C@]2(CO)CC[C@]3(C)[C@H](CC[C@@H]4[C@@]5(C)CCC(=O)C(C)(C)[C@@H]5CC[C@]43C)[C@@H]12",
    "growth": "42.2% (inactive)"
  },
  {
    "Compound": "O=C1/C=C/[C@@H](O)[C@@H]2C[C@@H](O)C[C@H]2/C=C/CCC[C@@H](O)CCO1",
    "growth": "116% (inactive)"
  },
  {
    "Compound": "CNC(=O)c1ccccc1Nc1nc(Nc2cc(OC)c(OC)c(OC)c2)ncc1Br",
    "growth": "-25.2% (active)"
  },
  {
    "Compound": "COc1ccc(-c2nn(-c3ccccc3)cc2/C=C/C(=O)NNC(=O)Nc2ccc(C)cc2)cc1",
    "growth": "92.3% (inactive)"
  },
  {
    "Compound": "N#Cc1c(-c2ccccc2)nc(SCC(O)CN2CCOCC2)nc1N1CCOCC1 (centres undefined)",
    "growth": "26% (inactive)"
  },
  {
    "Compound": "O=C1NC(=O)/C(=C/c2c(-c3ccccc3)nc3sc(COc4ccccc4)nn23)S1",
    "growth": "89.4% (inactive)"
  },
  {
    "Compound": "Cc1cccc(-c2nc(Nc3ccc4ncsc4c3)c3ccccc3n2)n1",
    "growth": "34.6% (inactive)"
  },
  {
    "Compound": "COc1ccc(CCN2C(=O)/C(=C/c3ccc(C4Oc5ccccc5C5CC(c6ccccc6)=NN54)cc3)SC2=S)cc1 (centres undefined)",
    "growth": "103% (inactive)"
  },
  {
    "Compound": "Cc1ccc(S(=O)(=O)c2nc(-c3ccccc3)oc2Sc2nc3ccccc3s2)cc1",
    "growth": "62.7% (inactive)"
  },
  {
    "Compound": "O=[N+]([O-])c1cc(NS(=O)(=O)c2ccccc2)ccc1NS(=O)(=O)c1ccccc1",
    "growth": "104% (inactive)"
  }
]
